We begin with a simple list: items and their reported controlling effect on rice blast.
Test system: Pyricularia grisea
Type: in vivo
Details: 10 ppm

{"structure_notation": "Br.Cc1ccc(NC(=O)Cc2csc(=Nc3ccc(F)cc3F)n2C)cc1", "tested_on": "Pyricularia grisea", "controlling effect on rice blast [%]": 91}
{"structure_notation": "CCc1ccc(NC(=O)Cc2csc(=Nc3ccc(C(F)(F)F)cc3)n2C)cc1.Cl", "tested_on": "Pyricularia grisea", "controlling effect on rice blast [%]": 96}
{"structure_notation": "Cl.Cn1c(CC(=O)Nc2ccccc2F)csc1=Nc1ccc(Br)cc1", "tested_on": "Pyricularia grisea", "controlling effect on rice blast [%]": 85}
{"structure_notation": "COc1ccc(NC(=O)Cc2csc(=Nc3ccc(C(F)(F)F)cc3)n2C)cc1.Cl", "tested_on": "Pyricularia grisea", "controlling effect on rice blast [%]": 98}
{"structure_notation": "Br.Cn1c(CC(=O)Nc2ccccc2)csc1=Nc1ccc(F)cc1F", "tested_on": "Pyricularia grisea", "controlling effect on rice blast [%]": 91}
{"structure_notation": "Br.COc1ccc(NC(=O)Cc2csc(=Nc3ccc(C#N)cc3)n2C)cc1", "tested_on": "Pyricularia grisea", "controlling effect on rice blast [%]": 100}
{"structure_notation": "CCCCc1ccc(N=c2scc(CC(=O)Nc3ccc(C)c(Cl)c3)n2C)cc1.Cl", "tested_on": "Pyricularia grisea", "controlling effect on rice blast [%]": 92}
{"structure_notation": "COc1ccc(NC(=O)Cc2csc(=Nc3cccc(F)c3)n2C)cc1.Cl", "tested_on": "Pyricularia grisea", "controlling effect on rice blast [%]": 99}
{"structure_notation": "Cc1ccc(NC(=O)Cc2csc(=Nc3cc(OC(C)C)c(Cl)cc3F)n2C)cc1.Cl", "tested_on": "Pyricularia grisea", "controlling effect on rice blast [%]": 98}
{"structure_notation": "COc1ccc(NC(=O)Cc2csc(=Nc3ccc(C#N)cc3)n2C)cc1F.Cl", "tested_on": "Pyricularia grisea", "controlling effect on rice blast [%]": 97}
{"structure_notation": "COc1ccc(NC(=O)Cc2csc(=Nc3ccc(F)cc3F)n2C)cc1.Cl", "tested_on": "Pyricularia grisea", "controlling effect on rice blast [%]": 97}
{"structure_notation": "COc1ccc(NC(=O)Cc2csc(=Nc3ccccc3F)n2C)cc1.Cl", "tested_on": "Pyricularia grisea", "controlling effect on rice blast [%]": 95}
